Recorded melting point, one value per entry.

{"Molecule": "CC(C)C[C@H](NC(=O)c1cnccn1)C(=O)O [10a, (Pyrazine-2-carbonyl)-L-leucine]", "Endpoint value": "155 to 156 °C"}
{"Molecule": "CSCC[C@H](NC(=O)c1cnccn1)C(=O)NNC(=O)c1ccncc1 [12d]", "Endpoint value": "145 to 147 °C"}
{"Molecule": "O=C(NNC(=O)[C@H](Cc1c[nH]c2ccccc12)NC(=O)c1cnccn1)c1ccncc1 [12g]", "Endpoint value": "243 to 245 °C"}

Prompt line: Give the measured melting point of CSCC[C@H](NC(=O)c1cnccn1)C(=O)O [10d, (Pyrazine-2-carbonyl)-L-methionine] .
Response line: 136 to 138 °C

---

Test system: Pseudomonas aeruginosa
Assay info: Aerobic antibacterial MIC, standard dilution technique
Type: cell-based
Details: clinical isolate, value in parentheses, read-out: Minimum inhibitory concentration (MIC) Pseudomonas aeruginosa
Property name: MIC
Form entry: enter the amount, then its unit.

Below: 3 compounds and their reported MIC.
{"Compound": "O=C(NNC(=O)c1cnccn1)c1ccncc1", "MIC": "0.12 µM"}
{"Compound": "O=C(N[C@@H](Cc1c[nH]c2ccccc12)C(=O)O)c1cnccn1", "MIC": "0.39 µM"}
{"Compound": "O=C(NNC(=O)C(Cc1ccccc1)NC(=O)c1cnccn1)c1ccncc1 (stereo not shown)", "MIC": "82 µM"}

Prompt line: Please state recorded MIC (tested on Pseudomonas aeruginosa) of NNC(=O)c1ccncc1
Response line: 467 µM

Prompt line: O=C(NNC(=O)c1ccncc1)c1ccncc1 , same question.
Response line: 0.25 µM

Prompt line: Repeat with O=C(NC(Cc1ccccc1)C(=O)O)c1cnccn1 (stereo not shown)
Response line: 59 µM

---

Each record here notes measured MIC.
Test system: Mycobacterium fortuitum
Assay info: microbe, parasite or virus in culture
Type: cell-based
Details: Mycolicibacterium fortuitum; clinical isolate; read-out: Minimum inhibitory concentration (MIC) M. fortuitum

{"Molecule": "O=C(NNC(=O)[C@H](Cc1ccccc1)NC(=O)c1cnccn1)c1ccncc1 [12e]", "MIC": "20 µg/mL"}

Prompt line: I am curious: what MIC value has been reported for CC(C)C[C@H](NC(=O)c1cnccn1)C(=O)NNC(=O)c1ccncc1 [12a] ?
Response line: 20 µg/mL

Prompt line: Try the molecule CC[C@@H](C)[C@H](NC(=O)c1cnccn1)C(=O)O [10c, (Pyrazine-2-carbonyl)-L-alloisoleucine]
Response line: > 20 µg/mL

Prompt line: Then what about the molecule O=C(NNC(=O)C(Cc1ccccc1)NC(=O)c1cnccn1)c1ccncc1 (stereo not drawn) [12f] ?
Response line: 10 µg/mL

Prompt line: Request: NC(=O)c1cnccn1 [PZA, pyrazinamide, reference compound]
Response line: 10 µg/mL

Prompt line: Item: O=C(N[C@@H](Cc1ccccc1)C(=O)O)c1cnccn1 [10e, (Pyrazine-2-carbonyl)-L-phenylalanine]
Response line: > 20 µg/mL

Prompt line: And what about the molecule O=C(NNC(=O)c1cnccn1)c1ccncc1 [compound 13] ?
Response line: 10 µg/mL

Prompt line: And for O=C(NNC(=O)[C@H](Cc1c[nH]c2ccccc12)NC(=O)c1cnccn1)c1ccncc1 [12g] ?
Response line: 20 µg/mL

Prompt line: Same read-out for CC(C)C[C@H](NC(=O)c1cnccn1)C(=O)O [10a, (Pyrazine-2-carbonyl)-L-leucine] ?
Response line: 20 µg/mL

Prompt line: Next record, please: O=C(N[C@@H](Cc1c[nH]c2ccccc12)C(=O)O)c1cnccn1 [10g, (Pyrazine-2-carbonyl)-L-tryptophan]
Response line: > 20 µg/mL

Prompt line: Consider next the molecule O=C(NC(Cc1ccccc1)C(=O)O)c1cnccn1 (racemic) [10f, (Pyrazine-2-carbonyl)-DL-phenylalanine] in the same way.
Response line: > 20 µg/mL

Prompt line: What would you report for CSCC[C@H](NC(=O)c1cnccn1)C(=O)NNC(=O)c1ccncc1 [12d] ?
Response line: 20 µg/mL

---

# key: entry, value: MIC
System: Pseudomonas aeruginosa
Assay info: Aerobic antibacterial MIC, standard dilution technique
Format: cell-based
Details: clinical isolate, read-out: Minimum inhibitory concentration (MIC) Pseudomonas aeruginosa
API: value field is a number in µg/mL; no unit string.

Worked examples, 9 compounds total:
{"Compound": "O=C(NNC(=O)c1cnccn1)c1ccncc1", "System tested": "Pseudomonas aeruginosa", "MIC [µg/mL]": 0.03}
{"Compound": "CSCC[C@H](NC(=O)c1cnccn1)C(=O)NNC(=O)c1ccncc1", "System tested": "Pseudomonas aeruginosa", "MIC [µg/mL]": 0.12}
{"Compound": "O=C(NNC(=O)[C@H](Cc1c[nH]c2ccccc12)NC(=O)c1cnccn1)c1ccncc1", "System tested": "Pseudomonas aeruginosa", "MIC [µg/mL]": 0.12}
{"Compound": "CC[C@H](C)[C@H](NC(=O)c1cnccn1)C(=O)NNC(=O)c1ccncc1", "System tested": "Pseudomonas aeruginosa", "MIC [µg/mL]": 0.12}
{"Compound": "CC(C)[C@H](NC(=O)c1cnccn1)C(=O)NNC(=O)c1ccncc1", "System tested": "Pseudomonas aeruginosa", "MIC [µg/mL]": 0.12}
{"Compound": "O=C(NC(Cc1ccccc1)C(=O)O)c1cnccn1 (stereo not shown)", "System tested": "Pseudomonas aeruginosa", "MIC [µg/mL]": 16}
{"Compound": "O=C(NNC(=O)[C@H](Cc1ccccc1)NC(=O)c1cnccn1)c1ccncc1", "System tested": "Pseudomonas aeruginosa", "MIC [µg/mL]": 0.12}
{"Compound": "O=C(NNC(=O)C(Cc1ccccc1)NC(=O)c1cnccn1)c1ccncc1 (stereo not shown)", "System tested": "Pseudomonas aeruginosa", "MIC [µg/mL]": 32}
{"Compound": "CSCC[C@H](NC(=O)c1cnccn1)C(=O)O", "System tested": "Pseudomonas aeruginosa", "MIC [µg/mL]": 0.12}

Prompt line: Suppose we examine the compound CC[C@@H](C)[C@H](NC(=O)c1cnccn1)C(=O)O ; what MIC value has been reported?
Response line: 0.12

---

System: RPE1 (normal human immortalized retinal epithelial) cell line
Assay info: Antiproliferative properties by MTT technique
Type: cell-based
Details: RPE1 cells, 100 μM
Property name: Percentage of cell proliferation ± SD

Here's what some known entries look like.
{"Compound": "O=C(NNC(=O)C(Cc1ccccc1)NC(=O)c1cnccn1)c1ccncc1 (stereo not shown) [12f]", "Percentage of cell proliferation ± SD": "95.5 ± 8.6%"}
{"Compound": "CC(C)C[C@H](NC(=O)c1cnccn1)C(=O)O [10a, (Pyrazine-2-carbonyl)-L-leucine]", "Percentage of cell proliferation ± SD": "84.6 ± 0.7%"}
{"Compound": "O=C(N[C@@H](Cc1ccccc1)C(=O)O)c1cnccn1 [10e, (Pyrazine-2-carbonyl)-L-phenylalanine]", "Percentage of cell proliferation ± SD": "90.4 ± 3.3%"}

Prompt line: I'd like to know its Percentage of cell proliferation ± SD. The compound in question is O=C(NNC(=O)c1ccncc1)c1ccncc1 [compound 16, N′-Isonicotinoylisonicotinohydrazide]
Response line: 83.5 ± 7.4%

---

Tested on: Mycobacterium marinum
Assay info: microbe, parasite or virus in culture
Assay type: cell-based
Details: clinical isolate, read-out: Minimum inhibitory concentration (MIC) M. marinum
Property name: MIC

{"Compound": "O=C(NNC(=O)[C@H](Cc1ccccc1)NC(=O)c1cnccn1)c1ccncc1 [12e]", "MIC": "20 µg/mL"}
{"Compound": "O=C(NNC(=O)C(Cc1ccccc1)NC(=O)c1cnccn1)c1ccncc1 (stereo not drawn) [12f]", "MIC": "10 µg/mL"}
{"Compound": "O=C(NNC(=O)c1cnccn1)c1ccncc1", "MIC": "10 µg/mL"}
{"Compound": "CSCC[C@H](NC(=O)c1cnccn1)C(=O)NNC(=O)c1ccncc1 [12d]", "MIC": "10 µg/mL"}
{"Compound": "O=C(N[C@@H](Cc1ccccc1)C(=O)O)c1cnccn1 [10e, (Pyrazine-2-carbonyl)-L-phenylalanine]", "MIC": "> 20 µg/mL"}
{"Compound": "NNC(=O)c1ccncc1", "MIC": "10 µg/mL"}
{"Compound": "CSCC[C@H](NC(=O)c1cnccn1)C(=O)O [10d, (Pyrazine-2-carbonyl)-L-methionine]", "MIC": "> 20 µg/mL"}
{"Compound": "CC(C)C[C@H](NC(=O)c1cnccn1)C(=O)NNC(=O)c1ccncc1 [12a]", "MIC": "20 µg/mL"}

Turning to the following compound.
Prompt line: Can you look up the measured MIC of O=C(NNC(=O)[C@H](Cc1c[nH]c2ccccc12)NC(=O)c1cnccn1)c1ccncc1 [12g] for me?
Response line: 20 µg/mL

---

Test system: Staphylococcus aureus
Assay info: Aerobic antibacterial MIC, standard dilution technique
Assay type: cell-based
Details: clinical isolate, value in parentheses, read-out: Minimum inhibitory concentration (MIC) Staphylococcus aureus
# Lookup of reported MIC keyed by entry
Your answer should be a plain number; it is taken to be in µM.

Sample records with MIC:
{"Compound": "CSCC[C@H](NC(=O)c1cnccn1)C(=O)NNC(=O)c1ccncc1 [C00014]", "System tested": "Staphylococcus aureus", "Unit of measure": "µM", "MIC": 171}
{"Compound": "CC(C)C[C@H](NC(=O)c1cnccn1)C(=O)O [C00004]", "System tested": "Staphylococcus aureus", "Unit of measure": "µM", "MIC": 4320}
{"Compound": "CC(C)[C@H](NC(=O)c1cnccn1)C(=O)O [C00005]", "System tested": "Staphylococcus aureus", "Unit of measure": "µM", "MIC": 2290}
{"Compound": "O=C(NNC(=O)c1cnccn1)c1ccncc1 [compound 13]", "System tested": "Staphylococcus aureus", "Unit of measure": "µM", "MIC": 32.9}

Prompt line: Recall the recorded MIC for O=C(NNC(=O)[C@H](Cc1ccccc1)NC(=O)c1cnccn1)c1ccncc1 [C00015] with Staphylococcus aureus and state it.
Response line: 41
